- Test system: Trypanosoma cruzi
- Test Summary: Trypanosoma cruzi phosphomannomutase and mannose-1-phosphate guanylyltransferase assay
- Type: functional
- Parameters: scale not given: direction of the effect not stated beside the values
- Experimental Parameters: 10 µM
What Percent Effect was measured for each of the following?
Give bare numbers, in %.

{"Molecule": "CN(CCCc1ccccc1)Cc1nc2c(cnn2C)c(=O)[nH]1", "Test Target": "Trypanosoma cruzi", "Units Label": "%", "Percent Effect": -7.26}
{"Molecule": "CCc1csc(CCNC(=O)C2CC(=O)N(C(C)C)C2)n1 (centres undefined)", "Test Target": "Trypanosoma cruzi", "Units Label": "%", "Percent Effect": 0.0983}
{"Molecule": "COCCn1cc2c(n1)C(CNCc1ccco1)OCC2 (centres undefined)", "Test Target": "Trypanosoma cruzi", "Units Label": "%", "Percent Effect": -0.781}

Items follow; give Percent Effect for each.
1. CC(=O)N(Cc1noc(C)n1)C1CCN(Cc2cc(C)on2)C1 (centres undefined)
2. OC[C@H]1CC[C@]2(CC1)CN(Cc1ccccc1F)Cc1ccccc1O2
3. Cc1ccccc1-c1cncc(C2CCN(C)CC2)n1
4. CCN(C(c1cccnc1)c1ccc2c(c1)CCO2)S(C)(=O)=O (centres undefined)
5. CCn1ncc2c1CCCC2NCc1cc(Cl)c(OC)c(OC)c1 (centres undefined)
6. O=C(Nc1ncn(CC(=O)N2CCCCCC2)n1)C1CCCO1 (centres undefined)
7. Cc1cc(NC(=O)CN2CCn3c(nnc3C3CC3)C2)n(C)n1
8. CCN(CC1CCOC1)C(=O)c1ccccc1N1CCOCC1 (centres undefined)

**A:**
1. 0.0979
2. 4.15
3. 5.73
4. 6.75
5. 3.31
6. -6.39
7. -4.7
8. -3.08

Give Percent Effect for all molecules that follow.
1. Cc1cnn(CC2CCCN2Cc2nccn2C)c1 (centres undefined)
2. COc1ccccc1CC(=O)NCc1c(C)nc2cc(=O)[nH]n2c1C
3. Cc1noc(CN(Cc2ccc3c(c2)OCO3)Cc2ccc(C)o2)n1
4. COCCN1C[C@H]2CC[C@@]3(N=C(C)N(CC4CC4)C3=O)[C@H]2C1

**A:**
1: 3.59; 2: 3.01; 3: -5.75; 4: -0.391

Origin of values: ChEMBL document CHEMBL3988442
